- experimentalTarget: mouse PIEZO1 (mPIEZO1; HEK-mPiezo1) (Mus musculus)
- Construct: mouse Piezo1 (Addgene) in pcDNA3.1 / pIRES2-AcGFP1, transiently transfected in HEK 293 cells; low endogenous human PIEZO1 in host
- Sequence (E2JF22 whole entry): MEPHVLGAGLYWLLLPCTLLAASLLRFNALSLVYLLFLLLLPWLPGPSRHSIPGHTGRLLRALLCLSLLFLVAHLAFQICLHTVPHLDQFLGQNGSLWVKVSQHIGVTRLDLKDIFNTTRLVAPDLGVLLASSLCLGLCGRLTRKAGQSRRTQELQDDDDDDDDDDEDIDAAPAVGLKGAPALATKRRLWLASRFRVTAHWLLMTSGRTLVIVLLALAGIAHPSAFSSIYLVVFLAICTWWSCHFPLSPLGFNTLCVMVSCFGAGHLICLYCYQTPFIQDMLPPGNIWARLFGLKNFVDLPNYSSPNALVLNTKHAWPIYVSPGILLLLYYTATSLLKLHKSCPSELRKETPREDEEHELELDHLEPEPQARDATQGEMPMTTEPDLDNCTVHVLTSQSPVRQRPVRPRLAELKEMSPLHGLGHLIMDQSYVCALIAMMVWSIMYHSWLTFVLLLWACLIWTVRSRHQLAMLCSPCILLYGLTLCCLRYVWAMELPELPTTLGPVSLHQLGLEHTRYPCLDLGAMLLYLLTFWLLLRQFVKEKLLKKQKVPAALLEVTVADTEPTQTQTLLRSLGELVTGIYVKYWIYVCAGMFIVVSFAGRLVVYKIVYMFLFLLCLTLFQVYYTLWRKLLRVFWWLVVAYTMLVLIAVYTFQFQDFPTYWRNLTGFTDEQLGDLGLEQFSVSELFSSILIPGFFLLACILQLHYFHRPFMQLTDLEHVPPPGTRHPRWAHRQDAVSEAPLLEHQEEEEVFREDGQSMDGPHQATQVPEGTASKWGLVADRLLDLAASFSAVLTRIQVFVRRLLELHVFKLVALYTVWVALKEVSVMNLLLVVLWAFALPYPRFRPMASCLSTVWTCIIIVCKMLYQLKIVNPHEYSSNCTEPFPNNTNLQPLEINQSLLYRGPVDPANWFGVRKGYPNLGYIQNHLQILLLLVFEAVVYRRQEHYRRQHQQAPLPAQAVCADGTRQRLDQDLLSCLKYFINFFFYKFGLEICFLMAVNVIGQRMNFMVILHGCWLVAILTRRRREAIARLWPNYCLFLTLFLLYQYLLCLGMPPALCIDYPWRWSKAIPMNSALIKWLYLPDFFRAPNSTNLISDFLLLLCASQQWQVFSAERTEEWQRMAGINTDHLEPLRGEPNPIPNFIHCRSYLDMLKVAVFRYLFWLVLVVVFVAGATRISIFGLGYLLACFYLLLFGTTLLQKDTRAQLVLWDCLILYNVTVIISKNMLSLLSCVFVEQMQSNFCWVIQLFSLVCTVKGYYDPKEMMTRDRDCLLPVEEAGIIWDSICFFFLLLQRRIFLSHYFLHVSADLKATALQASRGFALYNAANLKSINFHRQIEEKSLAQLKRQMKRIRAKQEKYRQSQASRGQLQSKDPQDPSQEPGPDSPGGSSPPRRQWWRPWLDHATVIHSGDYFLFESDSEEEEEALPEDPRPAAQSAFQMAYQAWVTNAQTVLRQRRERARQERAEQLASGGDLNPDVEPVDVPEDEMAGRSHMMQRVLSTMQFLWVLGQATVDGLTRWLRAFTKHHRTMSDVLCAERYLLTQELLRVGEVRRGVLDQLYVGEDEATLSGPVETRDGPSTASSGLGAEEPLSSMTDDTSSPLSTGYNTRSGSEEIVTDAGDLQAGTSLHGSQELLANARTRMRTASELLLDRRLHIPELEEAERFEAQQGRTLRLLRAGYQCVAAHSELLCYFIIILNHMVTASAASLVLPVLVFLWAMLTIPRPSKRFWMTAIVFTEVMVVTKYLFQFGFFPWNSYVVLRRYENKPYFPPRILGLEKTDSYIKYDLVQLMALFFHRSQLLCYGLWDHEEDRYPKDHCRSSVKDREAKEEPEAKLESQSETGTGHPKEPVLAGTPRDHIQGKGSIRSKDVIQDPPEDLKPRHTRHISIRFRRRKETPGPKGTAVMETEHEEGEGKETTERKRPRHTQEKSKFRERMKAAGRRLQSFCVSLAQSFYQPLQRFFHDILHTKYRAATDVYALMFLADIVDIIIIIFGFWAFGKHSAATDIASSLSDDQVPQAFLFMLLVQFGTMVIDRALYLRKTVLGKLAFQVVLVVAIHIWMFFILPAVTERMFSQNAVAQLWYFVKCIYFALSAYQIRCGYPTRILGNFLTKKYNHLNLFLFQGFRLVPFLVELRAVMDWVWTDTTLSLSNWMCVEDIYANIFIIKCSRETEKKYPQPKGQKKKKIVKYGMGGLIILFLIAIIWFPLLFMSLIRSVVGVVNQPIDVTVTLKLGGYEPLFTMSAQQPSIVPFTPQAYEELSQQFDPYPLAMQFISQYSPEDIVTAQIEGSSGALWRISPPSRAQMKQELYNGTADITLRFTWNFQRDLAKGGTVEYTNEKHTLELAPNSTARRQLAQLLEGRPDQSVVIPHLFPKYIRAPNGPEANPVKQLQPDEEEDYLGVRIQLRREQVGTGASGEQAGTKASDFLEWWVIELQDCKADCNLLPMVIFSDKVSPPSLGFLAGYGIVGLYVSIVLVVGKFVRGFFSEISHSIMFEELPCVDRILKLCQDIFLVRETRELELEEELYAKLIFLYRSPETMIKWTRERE
- testDetails: Fura-2 Ca2+ imaging, HEK cells, Hill fit
assayMetric: pEC50
Notebook: values listed as pEC50 are -log10 of the concentration (mol/L).

Looking for the measured pEC50 of `Clc1cccc(Cl)c1CSc1nnc(-c2cnccn2)s1` , can you help? 6.42

###

- experimentalTarget: TRPV4 (MC3T3-E1 cells) (Mus musculus)
- Construct: native full-length channel in mouse osteoblastic MC3T3-E1 cells (Riken Cell Bank); identity supported by siTRPV4 knockdown
- Sequence (Q9EPK8 whole entry): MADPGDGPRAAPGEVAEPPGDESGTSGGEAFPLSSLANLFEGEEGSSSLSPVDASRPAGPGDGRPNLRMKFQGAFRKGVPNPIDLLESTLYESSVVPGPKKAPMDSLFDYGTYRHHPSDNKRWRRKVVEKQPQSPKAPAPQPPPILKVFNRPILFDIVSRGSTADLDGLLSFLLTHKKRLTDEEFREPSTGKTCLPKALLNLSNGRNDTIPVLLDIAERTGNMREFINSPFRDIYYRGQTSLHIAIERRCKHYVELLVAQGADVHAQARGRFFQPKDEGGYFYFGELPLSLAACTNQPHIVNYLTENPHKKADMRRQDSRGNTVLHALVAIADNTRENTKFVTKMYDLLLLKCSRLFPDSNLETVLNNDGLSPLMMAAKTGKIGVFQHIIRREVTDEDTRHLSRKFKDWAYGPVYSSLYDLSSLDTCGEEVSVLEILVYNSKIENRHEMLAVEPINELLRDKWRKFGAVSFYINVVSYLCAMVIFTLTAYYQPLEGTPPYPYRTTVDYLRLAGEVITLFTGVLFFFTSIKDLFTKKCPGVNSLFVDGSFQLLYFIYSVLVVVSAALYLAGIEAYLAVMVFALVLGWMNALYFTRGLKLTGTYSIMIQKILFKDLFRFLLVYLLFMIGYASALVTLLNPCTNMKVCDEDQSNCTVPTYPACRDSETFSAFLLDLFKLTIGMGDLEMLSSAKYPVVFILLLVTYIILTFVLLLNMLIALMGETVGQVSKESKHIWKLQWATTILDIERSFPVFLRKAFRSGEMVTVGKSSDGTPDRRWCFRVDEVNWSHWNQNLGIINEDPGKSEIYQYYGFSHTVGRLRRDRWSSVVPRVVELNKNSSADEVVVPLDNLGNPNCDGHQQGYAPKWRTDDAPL
- testDetails: Fura-2 Ca2+ imaging, MC3T3-E1 cells, Hill fit
- particulars: agonist; native cells; pH 7.4, 2.2 mM Ca2+, n = 7
assayMetric: pEC50
Scale for pEC50: -log10 of concentration given in mol/L; no unit attached.

Which pEC50 value is on record for CC(C)C[C@H](NC(=O)c1cc2ccccc2s1)C(=O)N1CCN(C(=O)[C@H](CO)NS(=O)(=O)c2ccc(Cl)cc2Cl)CC1 [GSK1016790A] ? 8.65
